These entries and their values trace back to paper PMC9102066.

TESTED_TARGET: mouse OCT1 (Mus musculus)
Construct: expressed in transfected cells; host or cells: HEK293 (Flp-In system)
Sequence (O08966 1-556): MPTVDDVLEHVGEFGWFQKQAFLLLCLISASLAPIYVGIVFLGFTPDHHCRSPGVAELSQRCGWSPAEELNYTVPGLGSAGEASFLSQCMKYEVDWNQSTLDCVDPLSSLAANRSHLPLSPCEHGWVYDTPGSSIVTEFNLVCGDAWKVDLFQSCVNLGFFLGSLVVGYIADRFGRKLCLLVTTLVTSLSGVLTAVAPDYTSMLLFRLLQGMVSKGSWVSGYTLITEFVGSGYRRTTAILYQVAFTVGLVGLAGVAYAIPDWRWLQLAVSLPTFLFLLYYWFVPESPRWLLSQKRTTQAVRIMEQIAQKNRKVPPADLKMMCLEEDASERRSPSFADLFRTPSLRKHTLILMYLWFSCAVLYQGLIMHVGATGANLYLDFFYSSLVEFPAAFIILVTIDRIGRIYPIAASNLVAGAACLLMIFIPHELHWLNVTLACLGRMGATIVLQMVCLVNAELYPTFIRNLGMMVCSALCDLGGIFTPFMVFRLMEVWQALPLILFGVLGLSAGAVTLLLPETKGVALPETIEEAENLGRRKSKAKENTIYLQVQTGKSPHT
ASSAY_METHOD_TEXT: Uptake in HEK293 cells stably overexpressing mouse OCT1
Assay type: in vitro ADME
DETAILS: intrinsic clearance = vmax divided by KM for each experiment
Where a name gives a salt, the structure may show the parent alone.
ENDPOINT_NAME: CLint ± SEM, mOCT1

CN(C)C(=N)N=C(N)N [Metformin, metformin hydrochloride]	38.7 ± 6.23 µL × min^−1 × mg Protein^−1
O=C(O[C@H]1C[C@H]2CC[C@@H](C1)[N+]21CCCC1)C(O)(c1ccccc1)c1ccccc1 [Trospium, trospium chloride]	180 ± 37.5 µL × min^−1 × mg Protein^−1
CCCC[N+]1(C)[C@@H]2C[C@@H](OC(=O)[C@H](CO)c3ccccc3)C[C@H]1[C@@H]1O[C@@H]12 (stereo partly shown) [Butylscopolamine, butylscopolamine bromide]	131 ± 25.6 µL × min^−1 × mg Protein^−1

Dear colleague, please send me the reported CLint ± SEM, mOCT1 for CC(Cc1ccc(O)cc1)NCC(O)c1cc(O)cc(O)c1 (stereo not shown) [Fenoterol, Fenoterol hydrochloride] when you can.
88.5 ± 15.5 µL × min^−1 × mg Protein^−1
